Values compiled from paper PMC9381536.

# Test system: MRC-5
# Experiment Notes: Cytotoxicity analysis (WST-1)
# Type: cell-based
# Settings: Homo sapiens, MRC5, MRC-5 normal cell line, 48 h
I'd be grateful if you could share measured IC50 for these entries.

Example results:
CC1(C)C(O)CCC23CC24CCC2(C)CC(O)CC2(C)C4CC(O)C13 (stereo not shown) [SCG, 20(27)-octanor-cycloastragenol, reference compound]; > 50 µM
Cc1ccc(S(=O)(=O)OC2CCC3(C)C4=CCC5(C)C(C6(C)CCC(C(C)(C)O)O6)C(O)CC5(C)C4C=CC3C2(C)C)cc1 (stereo not shown) [AG-08]; 2.58 µM
Cc1ccc(S(=O)(=O)OC2CCC34CC35CCC3(C)C(C6(C)CCC(C(C)(C)O)O6)C(O)CC3(C)C5C=CC4C2(C)C)cc1 (stereo not shown) [CG-03]; 5.29 µM
Cc1ccc(S(=O)(=O)OC2CC3C4(C)CC(O)CC4(C)CCC34CC43CC=CC(C)(C)C23)cc1 (stereo not shown) [SCG-03]; > 50 µM
CC(C)(O)C1CCC(C)(C2C(O)CC3(C)C4CC(O)C5C(C)(C)C=CCC5(C)C4=CCC23C)O1 (stereo not shown) [AG-02]; 39.9 µM
Cc1ccc(S(=O)(=O)OC2CC3(C)CCC45CC46CCC(O)C(C)(C)C6C(O)CC5C3(C)C2)cc1 (stereo not shown) [SCG-01]; > 50 µM
CC(=O)Nc1ccc(S(=O)(=O)OC2CCC34CC35CCC3(C)C(C6(C)CCC(C(C)(C)O)O6)C(O)CC3(C)C5C=CC4C2(C)C)cc1 (stereo not shown) [CG-06]; > 50 µM
Cc1ccc(S(=O)(=O)OC2CC3(C)CCC45CC46CCC(O)C(C)(C)C6C=CC5C3(C)C2)cc1 (stereo not shown) [SCG-05]; > 50 µM

Value sought for every listed compound: IC50.
1. CC(C)(O)C1CCC(C)(C2C(O)CC3(C)C4CC(O)C5C(C)(CCC(O)C5(C)C)C4=CCC23C)O1 (stereo not shown) [AG, astragenol, reference compound]
2. CC(C)(O)C1CCC(C)(C2C(O)CC3(C)C4CC(=O)C5C(C)(C)C(O)CCC56CC46CCC23C)O1 (stereo not shown) [CG-01]

1: > 30 µM; 2: > 30 µM
